- ASSAYED_SYSTEM: hCRTH2 receptor (Homo sapiens, UniProt Q9Y5Y4)
- Construct: expressed in transfected cells; host or cells: HEK293
- Sequence (Q9Y5Y4 whole entry): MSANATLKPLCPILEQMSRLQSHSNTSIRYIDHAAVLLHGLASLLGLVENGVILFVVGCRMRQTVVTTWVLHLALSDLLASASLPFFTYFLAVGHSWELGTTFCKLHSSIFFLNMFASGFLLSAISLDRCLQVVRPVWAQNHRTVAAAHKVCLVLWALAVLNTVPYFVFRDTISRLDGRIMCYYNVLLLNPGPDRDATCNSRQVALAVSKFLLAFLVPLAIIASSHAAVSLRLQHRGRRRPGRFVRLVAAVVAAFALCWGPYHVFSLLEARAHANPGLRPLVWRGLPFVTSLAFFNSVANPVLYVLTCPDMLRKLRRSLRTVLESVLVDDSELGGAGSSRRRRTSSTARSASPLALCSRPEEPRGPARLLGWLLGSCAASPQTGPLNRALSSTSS
- TEST_METHOD_NOTES: Radioligand displacement assay (3H-PGD2) on hCRTH2 receptor membranes
- Type: binding
- RUN_CONDITIONS: antagonistic activity, 3H-PGD2 radioligand displacement, HEK293-hCRTH2 membranes
pIC50: −log10 of the molar value.
Please mark y if the recorded pIC50 is equal to or greater than 7, and n if it falls below.

Study these solved cases before continuing.
COc1cc(OC)c2ccn(CCC(=O)N3CCc4ccccc4C3c3cc(Cl)ccc3OCC(=O)O)c2n1 (racemic) [Example 376] : y
Cc1ccc(OCC(=O)N2Cc3ccccc3C2c2cc(Cl)ccc2OCC(=O)O)c(C)n1 (racemic) [Example 512] : y
Cn1nc(COC(=O)N2CCc3c(ccc(F)c3F)[C@H]2c2cc(Cl)ccc2OCC(=O)O)c2ccccc21 [Example 321] : y
COc1cccc([C@@H]2C[C@H]2C(=O)N2CCc3ccccc3C2c2cc(Cl)ccc2OCC(=O)O)c1 (mixture of isomers) [Example 425] : y
O=C(O)COc1ccc(Cl)cc1C1c2ccccc2CN1C(=O)CCn1ncc2ccc(F)cc21 (single isomer, unassigned) [Example 546] : n

# check: pIC50 of O=C(O)COc1ccc(Cl)cc1C1c2ccccc2CN1C(=O)CCOc1ccccc1F (racemic) [Example 522] is greater than or equal to 7
y

Determine whether this compound has pIC50 no lower than 7: O=C(O)COc1ccc(Cl)cc1[C@@H]1c2ccc(F)cc2CCN1C(=O)OCCc1cccc(F)c1 [Example 336]
y

State whether the measured pIC50 reaches 7, counting equality as reaching it, for Cc1ccccc1[C@@H]1C[C@H]1C(=O)N1CCc2cc(F)ccc2C1c1cc(Cl)ccc1OCC(=O)O (mixture of isomers) [Example 431]
y

Quick check, pIC50 >= 7? COc1ccc(OCC(=O)N2CCc3ccccc3C2c2cc(Cl)ccc2OCC(=O)O)cn1 (racemic) [Example 486]
n

###

- ASSAYED_SYSTEM: hCRTH2 receptor (Homo sapiens)
- Construct: expressed in transfected cells; host or cells: HEK293
- TEST_METHOD_NOTES: Radioligand displacement assay (3H-PGD2) on hCRTH2 receptor membranes
- Assay type: binding
- RUN_CONDITIONS: antagonistic activity, 3H-PGD2 radioligand displacement, HEK293-hCRTH2 membranes
QUANTITY_KIND: log10 IC50 (log10 of the value in nM)
# values: log10(IC50), units nM

Before answering, review these 3 worked examples.
Cc1cnc(COC(=O)N2CCc3c(ccc(F)c3F)[C@H]2c2cc(Cl)ccc2OCC(=O)O)s1 : 0.66
Cc1cc(COC(=O)N2CCc3cc(F)ccc3[C@H]2c2cc(Cl)ccc2OCC(=O)O)n(C)n1 : 0.50
O=C(O)COc1ccc(Cl)cc1[C@@H]1c2ccc(F)c(F)c2CCN1C(=O)OCCc1ccccc1 : 0.71

Name the recorded log10 IC50 of the molecule listed here: O=C(O)COc1ccc(Cl)cc1C1c2ccccc2CCN1C(=O)CCN1C(=O)COc2ccc(Cl)cc21 (racemic)
2.54

Please look at this molecule and report its log10 IC50: Cc1ccc2ccn(CCC(=O)N3CCc4ccccc4C3c3cc(Cl)ccc3OCC(=O)O)c2c1 (racemic)
1.17

Give log10 IC50 for Cc1ccc(OCC(=O)N2CCc3ccccc3C2c2cc(Cl)ccc2OCC(=O)O)c(C)c1 (racemic)
1.64

Return reported log10 IC50. Input molecule: O=C(O)COc1ccc(Cl)cc1C1c2ccccc2CN1C(=O)CCOc1ccc(F)cc1 (racemic)
2.11

Give a short answer stating reported log10 IC50 for O=C(O)COc1ccc(Cl)cc1C1c2ccccc2CCN1C(=O)CCN1CCc2ccccc21 (racemic) .
1.10
